Recorded log10(EC50) for the following molecules
System Tested: Mu-type opioid receptor (Homo sapiens)
Sequence (P35372 whole entry): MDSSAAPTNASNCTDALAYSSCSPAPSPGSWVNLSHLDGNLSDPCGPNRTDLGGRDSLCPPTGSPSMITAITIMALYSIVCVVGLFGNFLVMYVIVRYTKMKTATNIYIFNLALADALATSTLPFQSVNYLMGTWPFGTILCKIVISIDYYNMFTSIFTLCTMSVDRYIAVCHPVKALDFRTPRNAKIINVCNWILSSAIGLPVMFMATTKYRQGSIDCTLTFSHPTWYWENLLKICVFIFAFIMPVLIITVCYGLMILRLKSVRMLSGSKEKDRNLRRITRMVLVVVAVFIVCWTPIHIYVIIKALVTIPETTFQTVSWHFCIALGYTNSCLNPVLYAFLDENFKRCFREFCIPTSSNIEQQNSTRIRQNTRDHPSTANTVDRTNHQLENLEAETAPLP
Assay Method Text: Agonist activity at FLAG-tagged mu-type opioid receptor (unknown origin) expressed in HEK293 cells assessed as inhibition of forskolin-stimulated cAMP accumulation after 30 mins by liquid scintillation counting analysis
// units: nM (pre-log); metric: EC50; scale: log10

- Compound Structure String: "C=C(C(=O)O)[C@@H](NC(=O)[C@H](Cc1c[nH]c2ccccc12)NC(=O)[C@@H]1CCCN1C(=O)[C@@H](N)Cc1c(C)cc(O)cc1C)c1ccccc1"
  Test Value: -3.89
- Compound Structure String: "C=C(C(N)=O)[C@@H](NC(=O)[C@H](Cc1c[nH]c2ccccc12)NC(=O)[C@@H]1CCN(C(=O)[C@@H](N)Cc2ccc(O)cc2)C1)c1ccccc1"
  Test Value: -1.40
- Compound Structure String: "C=C(C(N)=O)[C@@H](NC(=O)[C@H](Cc1c[nH]c2ccccc12)NC(=O)[C@H]1CCN(C(=O)[C@@H](N)Cc2ccc(O)cc2)C1)c1ccco1"
  Test Value: -1.03
- Compound Structure String: "C=C(C(N)=O)[C@@H](NC(=O)[C@H](Cc1c[nH]c2ccccc12)NC(=O)[C@H]1CCN(C(=O)[C@@H](N)Cc2c(C)cc(O)cc2C)C1)c1ccccc1"
  Test Value: -3.97

Attention now turns to another entry.
Returns the measured log10(EC50) for the input molecule. Input: C=C(C(N)=O)[C@@H](NC(=O)[C@H](Cc1c[nH]c2ccccc12)NC(=O)[C@H]1CCN(C(=O)[C@@H](N)Cc2ccc(O)cc2)C1)c1ccccc1
-1.24

Reference for the values: ChEMBL document CHEMBL2331515
